// reported mortality at 24 h per item
procedure.details: Acute oral toxicity in rats
Assay type: in vivo
conditions: rat, in vivo, po, 8000 mg/kg, Percentage Mortality
Only the number, expressed in %, is required.

CSCCC(NC(C)=O)C(=O)Oc1ccc(NC(C)=O)cc1 (racemic) | 0

// next item, mortality at 24 h requested
Query: Quick check: mortality at 24 h of CC(=O)Nc1ccc(O)cc1 ?
Result: 100

---

procedure.details: Acute oral toxicity in rats
Format: in vivo
conditions: rat, in vivo, po, 1000 mg/kg, Percentage Mortality
measurement.label: mortality at 48 h
Kindly write the number and append the unit.

Query: Quick check: mortality at 48 h of CSCCC(NC(C)=O)C(=O)Oc1ccc(NC(C)=O)cc1 (racemic) ?
Result: 0%

---

procedure.details: Hydrolysis stability in tris buffer
Assay type: physicochemical
conditions: pH 7.2, tris buffer pH 7.2, 30° C.
measurement.label: half-life

Query: Quick check: half-life of CSCCC(NC(C)=O)C(=O)Oc1ccc(NC(C)=O)cc1 (racemic) ?
Result: ~7.92 h

---

procedure.details: Acute oral toxicity in rats
Format: in vivo
conditions: rat, in vivo, po, 1000 mg/kg, 1 g/kg oral, 10 M, 5 Days; read-out: Percentage Mortality
measurement.label: mortality at 120 h (%)
Only the number, expressed in %, is required.

Query: Quick check: mortality at 120 h of CC(=O)Nc1ccc(O)cc1 ?
Result: 10

---

procedure.details: Acute oral toxicity in rats
Assay type: in vivo
conditions: rat, in vivo; oral, rats, Miller and Tainter method; read-out: LD50 (7 days)
measurement.label: LD50 at 168 h (mg/kg)
Only the number, expressed in mg/kg, is required.

Query: Quick check: LD50 at 168 h of CC(=O)Nc1ccc(O)cc1 ?
Result: 2850

---

procedure.details: Hydrolysis stability in tris buffer
Type: physicochemical
conditions: pH 7.2, tris buffer pH 7.2, 37° C.
measurement.label: half-life
Kindly write the number and append the unit.

Query: Quick check: half-life of CSCCC(NC(C)=O)C(=O)Oc1ccc(NC(C)=O)cc1 (racemic) [Compound A] ?
Result: 4 h

---

procedure.details: Acute oral toxicity in rats
Assay type: in vivo
conditions: rat, in vivo, po, 8000 mg/kg, 8 g/kg oral, M & F, 48 Hours; read-out: Percentage Mortality
Procedure: (F)--Investigation of Acute Oral Toxicity in Rats The investigation was carried out upon groups of 10 male and 10 female albino rats (Charles River CD-1 COBS) of 80-100 g body weight. […] Before the experiment they were fasted overnight, with water ad libitum. […] The rats were then kept under observation during seven days, while their behaviour patterns were observed and the mortality recorded
measurement.label: mortality at 48 h (%)
Only the number, expressed in %, is required.

Query: Quick check: mortality at 48 h of CC(=O)Nc1ccc(O)cc1 [NAPA, N-acetyl-para-aminophenol] ?
Result: 100

---

procedure.details: Acute oral toxicity in rats
Assay type: in vivo
conditions: rat, in vivo, po, 1000 mg/kg, 1 g/kg oral, 10 M, 4 Days; read-out: Percentage Mortality
measurement.label: mortality at 96 h
Kindly write the number and append the unit.

Query: Quick check: mortality at 96 h of CC(=O)Nc1ccc(O)cc1 ?
Result: 10%

---

procedure.details: Acute oral toxicity in rats
Assay type: in vivo
conditions: rat, in vivo, po, 8000 mg/kg, 8 g/kg oral, 10 M, 7 Days; read-out: Percentage Mortality
measurement.label: mortality at 168 h (%)
Only the number, expressed in %, is required.

Query: Quick check: mortality at 168 h of CC(=O)Nc1ccc(O)cc1 [NAPA, N-acetyl-para-aminophenol] ?
Result: 100
